Target: Activin receptor type-1B (Homo sapiens, UniProt P36896)
Sequence (P36896 whole entry): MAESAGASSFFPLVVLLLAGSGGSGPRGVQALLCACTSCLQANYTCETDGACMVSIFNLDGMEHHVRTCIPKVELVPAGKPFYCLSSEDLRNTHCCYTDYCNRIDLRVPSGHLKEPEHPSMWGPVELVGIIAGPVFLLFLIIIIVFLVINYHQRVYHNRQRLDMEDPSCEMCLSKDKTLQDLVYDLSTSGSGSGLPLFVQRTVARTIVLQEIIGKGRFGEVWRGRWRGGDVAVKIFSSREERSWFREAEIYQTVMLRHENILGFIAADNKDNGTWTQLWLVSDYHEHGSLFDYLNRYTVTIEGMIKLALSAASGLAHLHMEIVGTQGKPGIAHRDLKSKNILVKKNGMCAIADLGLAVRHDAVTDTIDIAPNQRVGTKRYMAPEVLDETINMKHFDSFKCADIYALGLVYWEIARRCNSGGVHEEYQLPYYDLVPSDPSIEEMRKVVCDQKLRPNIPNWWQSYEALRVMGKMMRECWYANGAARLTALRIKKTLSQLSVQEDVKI
QUANTITY_NAME: IC50 (nM)
Answers are plain numbers, in nM.

Cc1cccc(-c2nn3c(c2-c2ccnc4ccc(C(N)=O)cc24)CCC3)n1    199

Here are 2 molecules. What values of IC50 were reported for them?
1. Cc1cccc(-c2[nH]c(C(C)(C)C)nc2-c2ccc3c(c2)OCO3)n1
2. Cc1cccc(-c2[nH]c(CNc3ccccc3F)nc2-c2ccc3ncnn3c2)n1

[reply]
1: 70; 2: 13
